protocolText: small-molecule microarray binders of probe aShh, primary screen, biochemical, biotinylated probe, 635/667 nm fluorescence (AID 1114);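 further: probe is biotin-labelled aShh protein from a stem cell growth factor screen; measures binding of labelled protein to compounds printed on the slide; score merges feature fluorescence at 667 nm with signal-to-noise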
conditionDescription: higher = more signal
Hi there, I'd appreciate the recorded composite z-score for every entry that follows.
Respond numerically, and do not add a unit to the figure.

Quick one: composite z-score of "CC(=O)NCCCC[C@@H]1NC(=O)[C@H]2C[C@@H](C(=O)O)[C@@H](c3cccc(OCCO)c3)N2C1=O" ? 0.588

Query "C=C(C(=O)CC[C@@H](OC(=O)c1ccccc1-c1ccccc1C(=O)O)c1cccc(OCCO)c1)C(C)C" next -0.0396

Query C=CC[C@]1(C(=O)NCC(O)CO)N=C(c2ccc(OCCCO)cc2)O[C@H]1c1ccccc1CN=[N+]=[N-] (some centres undefined) next -0.0146

Query CN1C(=O)C2C=CC(C(O)COCc3ccccc3)N(Nc3ccc([N+](=O)[O-])cc3[N+](=O)[O-])C2C1=O (centres undefined) next -0.328

---

protocolText: inhibitors of hydroxyurea-induced Chk1 phosphorylation, primary screen, imaging, HeLa, phospho-Chk1 nuclear intensity (AID 1187); further: test concentration not given here
conditionDescription: hydroxyurea-induced phospho-Chk1 immunofluorescence imaging, higher = more signal
assayMetric: z-score
Respond numerically, and do not add a unit to the figure.

Quick one: z-score of "COC(=O)C[C@H]1O[C@]2(C(=O)N(C)c3ccccc32)[C@@H](C)[C@@H]1[Si](C)(C)c1ccccc1" ? 0.192

Query "C=C(CCCC)/C(=C/C[C@@H](OC(C)=O)c1ccc(OCCO)cc1)c1cc(C(=O)OC)ccc1OC" next 0.765

Query "C=CCOC(=O)[C@H]1[C@@H]2C(=O)O[C@@H](c3ccccc3)[C@@H](c3ccccc3)N2[C@@H](c2ccc(OCCOC(=O)[C@@H]3C[C@@H]4C(=O)N[C@@H](Cc5ccccc5)C(=O)N4[C@@H]3c3ccc(O)cc3)cc2)[C@]12C(=O)Nc1ccc(I)cc12" next -0.152

Query "CO[C@H]1O[C@H](CO)[C@@H](OC(=O)Nc2cccc(F)c2)[C@H](OC(=O)Nc2ccc3c(c2)OCO3)[C@@H]1OC(=O)Nc1ccc2c(c1)OCO2" next 0.613

Query "COC(=O)[C@@]1(Cc2ccc(F)cc2)[C@H]2c3cc(C(=O)N4CCCC4)n(CCSCCO)c3C[C@H]2CN1C(=O)c1ccccc1" next 0.827

Query "C=C(COC)C(=O)CC[C@@H](OC(=O)c1ccccc1-c1ccccc1C(=O)O)c1ccccc1OCCO" next 0.888

---

targetUnderTest: Dihydroorotate dehydrogenase (quinone), mitochondrial (Plasmodium falciparum (isolate 3D7))
protocolText: PfDHODH enzyme inhibitors, primary screen, biochemical, C-terminal His tag, absorbance 600 nm (AID 1175);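 further: recombinant parasite enzyme with a five histidine tag at its C terminus; test concentration not given here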
conditionDescription: DCIP absorbance 600 nm, higher = more signal, called active from +8 up or from −8 down
assayMetric: composite z-score
Respond numerically, and do not add a unit to the figure.

Quick one: composite z-score of "CCOC(=O)C[C@H]1[C@H](OC(=O)c2ccccc2-c2ccccc2)[C@@H](NC(=O)CC(C)C)c2cc(OCCCO)ccc2N1C(=O)c1ccccc1" ? -0.6

Query CC(C)c1ccc(NN2C(C(O)C(C)c3ccccc3)C=CC3C(=O)N(c4ccccc4)C(=O)C32)cc1 (configuration not stated) next -0.259

Query "Cc1ccc(N2C(=O)c3ccccc3[C@@H](C(=O)NCCN3CCOCC3)[C@@H]2c2ccc(CO)cc2)nc1" next 0.434

Query "COC(=O)C(CC#Cc1ccc2c(c1)[C@]1(C(=O)N2)[C@H](c2ccc(OCCO)cc2)N2[C@H](c3ccccc3)[C@H](c3ccccc3)OC(=O)[C@H]2[C@@H]1C(N)=O)C(=O)OC" next -1.24

Query "C=CC[C@]1(C(N)=O)N=C(c2ccc(OCCCO)cc2)O[C@H]1c1ccccc1N=[N+]=[N-]" next 0.315

Query CN1C(=O)C2C=CC(C(O)COCc3ccccc3)N(Nc3ccc([N+](=O)[O-])cc3[N+](=O)[O-])C2C1=O (configuration not stated) next -0.42

Query "CCCC=C(CCC)[C@@H](NC(=O)c1ccc(C(=O)OC)cc1)c1ccc(C(=O)OC)cc1" next 0.138

Provenance of the data: PubChem BioAssay
